# System: Streptococcus cellulosac 3313
# EXPERIMENT SUMMARY: Minimum Inhibitory Concentration, agarwell diffusion assay (Table 6)
# Assay type: cell-based
# TEST CONDITIONS: Streptococcus, 3313, read-out: Minimum Inhibitory Concentration, Streptococcus cellulosac 3313
Structures can show the parent of a compound that is named as a salt.
QUANTITY: MIC (µg/mL)
Answers are plain numbers, in µg/mL.

Examples with their reported MIC follow.
[[record]]
compound = "CCC1(C2OC(C3OC(O)(COC(=O)NC4CCCCC4)C(C)CC3C)CC2C)CCC(C2(C)CCC3(CC(O)C(C)C(C(C)C(OC)C(C)C(=O)O)O3)O2)O1 (stereo not shown)"
readout_number = 3.1

[[record]]
compound = "CCC1(C2OC(C3OC(O)(COC(=O)Nc4ccc(Oc5ccccc5)cc4)C(C)CC3C)CC2C)CCC(C2(C)CCC3(CC(O)C(C)C(C(C)C(OC)C(C)C(=O)O)O3)O2)O1 (stereo not shown)"
readout_number = 0.8


Each of the following entries comes with a recorded value; kindly state MIC for each.
1. CCC1(C2OC(C3OC(O)(COC(=O)Nc4ccc(F)cc4)C(C)CC3C)CC2C)CCC(C2(C)CCC3(CC(O)C(C)C(C(C)C(OC)C(C)C(=O)O)O3)O2)O1 (stereo not shown)
2. CCC1(C2OC(C3OC(O)(COC(=O)Nc4ccc(Br)cc4)C(C)CC3C)CC2C)CCC(C2(C)CCC3(CC(O)C(C)C(C(C)C(OC)C(C)C(=O)O)O3)O2)O1 (stereo not shown) [Monensin A, 4-bromophenylurethane, sodium salt]
3. CCC1(C2OC(C3OC(O)(COC(=O)NC4CC4c4ccccc4)C(C)CC3C)CC2C)CCC(C2(C)CCC3(CC(O)C(C)C(C(C)C(OC)C(C)C(=O)O)O3)O2)O1 (stereo not shown)
4. CCCCNC(=O)OCC1(O)OC(C2CC(C)C(C3(CC)CCC(C4(C)CCC5(CC(O)C(C)C(C(C)C(OC)C(C)C(=O)O)O5)O4)O3)O2)C(C)CC1C (stereo not shown)
5. CCC1(C2OC(C3OC(O)(COC(=O)Nc4ccc(C(C)=O)cc4)C(C)CC3C)CC2C)CCC(C2(C)CCC3(CC(O)C(C)C(C(C)C(OC)C(C)C(=O)O)O3)O2)O1 (stereo not shown)
6. COC(C(C)C(=O)O)C(C)C1OC2(CCC(C)(C3CCC(C)(C4OC(C5OC(O)(COC(=O)NCCc6ccccc6)C(C)CC5C)CC4C)O3)O2)CC(O)C1C (stereo not shown)

[3.1, 0.8, 12.5, 3.1, 3.1, 12.5]

Each of the following entries comes with a recorded value; kindly state MIC for each.
1. CCC1(C2OC(C3OC(O)(COC(=O)Nc4ccc(OC)cc4)C(C)CC3C)CC2C)CCC(C2(C)CCC3(CC(O)C(C)C(C(C)C(OC)C(C)C(=O)O)O3)O2)O1 (stereo not shown)
2. CCC1(C2OC(C3OC(O)(COC(=O)NCCc4ccccc4)C(C)CC3C)CC2C)CCC(C2(C)CCC3(CC(O)C(C)C(C(C)C(OC)C(C)C(=O)O)O3)O2)O1 (stereo not shown)

6.3
12.5

---

# System: Streptococcus cellulosac 3313
# EXPERIMENT SUMMARY: Minimum Inhibitory Concentration, agarwell diffusion assay (Table 6)
# Type: cell-based
# TEST CONDITIONS: Streptococcus, 3313, read-out: Minimum Inhibitory Concentration, Streptococcus cellulosac 3313
Give MIC for every item shown.
Give bare numbers, in µg/mL.

Examples with their reported MIC follow.
[[record]]
molecule = "CCC1(C2OC(C3OC(O)(COC(=O)Nc4ccc(Cl)cc4)C(C)CC3C)CC2C)CCC(C2(C)CCC3(CC(O)C(C)C(C(C)C(OC)C(C)C(=O)O)O3)O2)O1 (stereo not drawn)"
readout_number = 0.8

[[record]]
molecule = "CCC1(C2OC(C3OC(O)(COC(=O)Nc4ccc(C)cc4)C(C)CC3C)CC2C)CCC(C2(C)CCC3(CC(O)C(C)C(C(C)C(OC)C(C)C(=O)O)O3)O2)O1 (stereo not drawn)"
readout_number = 0.8


Name the recorded MIC of the molecule listed here: CCC1(C2OC(C3OC(O)(COC(=O)Nc4ccccc4)C(C)CC3C)CC2C)CCC(C2(C)CCC3(CC(O)C(C)C(C(C)C(OC)C(C)C(=O)O)O3)O2)O1 (stereo not drawn)
3.1
